FYI, the data here is from the supplement of paper PMC5998384.

test system: HeLa Kyoto; test: thermal stability score vs G1/S (z-score of summed log2 fold changes over temperatures); higher = more thermally stable than in G1/S; settings: cell cycle stage: mitosis
recorded endpoint: thermal stability score

biosequence="MSGGLLKALRSDSYVELSQYRDQHFRGDNEEQEKLLKKSCTLYVGNLSFYTTEEQIYELFSKSGDIKKIIMGLDKMKKTACGFCFVEYYSRADAENAMRYINGTRLDDRIIRTDWDAGFKEGRQYGRGRSGGQVRDEYRQDYDAGRGGYGKLAQNQ [NCBP2]" target_system="HeLa Kyoto" experimental_value=-1.78
biosequence="MFLVNSFLKGGGGGGGGGGGLGGGLGNVLGGLISGAGGGGGGGGGGGGGGGGGGGGTAMRILGGVISAISEAAAQYNPEPPPPRTHYSNIEANESEEVRQFRRLFAQLAGDDMEVSATELMNILNKVVTRHPDLKTDGFGIDTCRSMVAVMDSDTTGKLGFEEFKYLWNNIKRWQAIYKQFDTDRSGTICSSELPGAFEAAGFHLNEHLYNMIIRRYSDESGNMDFDNFISCLVRLDAMFRAFKSLDKDGTGQIQVNIQEWLQLTMYS [CAPNS1]" target_system="HeLa Kyoto" experimental_value=1.65
biosequence="MKSVIYHALSQKEANDSDVQPSGAQRAEAFVRAFLKRSTPRMSPQAREDQLQRKAVVLEYFTRHKRKEKKKKAKGLSARQRRELRLFDIKPEQQRYSLFLPLHELWKQYIRDLCSGLKPDTQPQMIQAKLLKADLHGAIISVTKSKCPSYVGITGILLQETKHIFKIITKEDRLKVIPKLNCVFTVETDGFISYIYGSKFQLRSSERSAKKFKAKGTIDL [POP4]" target_system="HeLa Kyoto" experimental_value=-2.15

---

tested on: HeLa Kyoto; experiment: melting temperature (median over replicates), in situ; higher = more thermally stable; conditions: cell cycle stage: mitosis
Reported melting temperature values for a set of sequences
recorded endpoint: melting temperature (°C)

biosequence="MKQDASRNAAYTVDCEDYVHVVEFNPFENGDSGNLIAYGGNNYVVIGTCTFQEEEADVEGIQYKTLRTFHHGVRVDGIAWSPETRLDSLPPVIKFCTSAADMKIRLFTSDLQDKNEYKVLEGHTDFINGLVFDPKEGQEIASVSDDHTCRIWNLEGVQTAHFVLHSPGMSVCWHPEETFKLMVAEKNGTIRFYDLLAQQAILSLESEQVPLMSAHWCLKNTFKVGAVAGNDWLIWDITRSSYPQNKRPVHMDRACLFRWSTISENLFATTGYPGKMASQFQIHHLGHPQPILMGSVAVGSGLSWHRTLPLCVIGGDHKLLFWVTEV [NUP37]" experimental_value=51
biosequence="MSVGFIGAGQLAYALARGFTAAGILSAHKIIASSPEMNLPTVSALRKMGVNLTRSNKETVKHSDVLFLAVKPHIIPFILDEIGADVQARHIVVSCAAGVTISSVEKKLMAFQPAPKVIRCMTNTPVVVQEGATVYATGTHALVEDGQLLEQLMSSVGFCTEVEEDLIDAVTGLSGSGPAYAFMALDALADGGVKMGLPRRLAIQLGAQALLGAAKMLLDSEQHPCQLKDNVCSPGGATIHALHFLESGGFRSLLINAVEASCIRTRELQSMADQEKISPAALKKTLLDRVKLESPTVSTLTPSSPGKLLTRSLALGGKKD [PYCR2]" experimental_value=54.5
biosequence="MPKVKSGAIGRRRGRQEQRRELKSAGGLMFNTGIGQHILKNPLIINSIIDKAALRPTDVVLEVGPGTGNMTVKLLEKAKKVVACELDPRLVAELHKRVQGTPVASKLQVLVGDVLKTDLPFFDTCVANLPYQISSPFVFKLLLHRPFFRCAILMFQREFALRLVAKPGDKLYCRLSINTQLLARVDHLMKVGKNNFRPPPKVESSVVRIEPKNPPPPINFQEWDGLVRITFVRKNKTLSAAFKSSAVQQLLEKNYRIHCSVHNIIIPEDFSIADKIQQILTSTGFSDKRARSMDIDDFIRLLHGFNAEGIHFS [DIMT1]" experimental_value=53.2
biosequence="MPYQYPALTPEQKKELSDIAHRIVAPGKGILAADESTGSIAKRLQSIGTENTEENRRFYRQLLLTADDRVNPCIGGVILFHETLYQKADDGRPFPQVIKSKGGVVGIKVDKGVVPLAGTNGETTTQGLDGLSERCAQYKKDGADFAKWRCVLKIGEHTPSALAIMENANVLARYASICQQNGIVPIVEPEILPDGDHDLKRCQYVTEKVLAAVYKALSDHHIYLEGTLLKPNMVTPGHACTQKFSHEEIAMATVTALRRTVPPAVTGITFLSGGQSEEEASINLNAINKCPLLKPWALTFSYGRALQASALKAWGGKKENLKAAQEEYVKRALANSLACQGKYTPSGQAGAAASESLFVSNHAY [ALDOA]" experimental_value=58.5
biosequence="MKDVPGFLQQSQNSGPGQPAVWHRLEELYTKKLWHQLTLQVLDFVQDPCFAQGDGLIKLYENFISEFEHRVNPLSLVEIILHVVRQMTDPNVALTFLEKTREKVKSSDEAVILCKTAIGALKLNIGDLQVTKETIEDVEEMLNNLPGVTSVHSRFYDLSSKYYQTIGNHASYYKDALRFLGCVDIKDLPVSEQQERAFTLGLAGLLGEGVFNFGELLMHPVLESLRNTDRQWLIDTLYAFNSGNVERFQTLKTAWGQQPDLAANEAQLLRKIQLLCLMEMTFTRPANHRQLTFEEIAKSAKITVNEVELLVMKALSVGLVKGSIDEVDKRVHMTWVQPRVLDLQQIKGMKDRLEFWCTDVKSMEMLVEHQAHDILT [PSMD13]" experimental_value=51.3

---

test system: HeLa Kyoto; test: melting temperature (median over replicates), in situ; higher = more thermally stable; conditions: cell cycle stage: mitosis
Threshold rule: melting temperature greater than or equal to 60 °C is rule met; below that, rule not met.

biosequence="MPELAVQKVVVHPLVLLSVVDHFNRIGKVGNQKRVVGVLLGSWQKKVLDVSNSFAVPFDEDDKDDSVWFLDHDYLENMYGMFKKVNARERIVGWYHTGPKLHKNDIAINELMKRYCPNSVLVIIDVKPKDLGLPTEAYISVEEVHDDGTPTSKTFEHVTSEIGAEEAEEVGVEHLLRDIKDTTVGTLSQRITNQVHGLKGLNSKLLDIRSYLEKVATGKLPINHQIIYQLQDVFNLLPDVSLQEFVKAFYLKTNDQMVVVYLASLIRSVVALHNLINNKIANRDAEKKEGQEKEESKKDRKEDKEKDKDKEKSDVKKEEKKEKK [PSMD7]" target_system="HeLa Kyoto" discrete_label="rule not met"
biosequence="MAASVEQREGTIQVQGQALFFREALPGSGQARFSVLLLHGIRFSSETWQNLGTLHRLAQAGYRAVAIDLPGLGHSKEAAAPAPIGELAPGSFLAAVVDALELGPPVVISPSLSGMYSLPFLTAPGSQLPGFVPVAPICTDKINAANYASVKTPALIVYGDQDPMGQTSFEHLKQLPNHRVLIMKGAGHPCYLDKPEEWHTGLLDFLQGLQ [ABHD14B]" target_system="HeLa Kyoto" discrete_label="rule not met"
biosequence="MPVAVGPYGQSQPSCFDRVKMGFVMGCAVGMAAGALFGTFSCLRIGMRGRELMGGIGKTMMQSGGTFGTFMAIGMGIRC [ROMO1]" target_system="HeLa Kyoto" discrete_label="rule not met"
biosequence="MSYDRAITVFSPDGHLFQVEYAQEAVKKGSTAVGVRGRDIVVLGVEKKSVAKLQDERTVRKICALDDNVCMAFAGLTADARIVINRARVECQSHRLTVEDPVTVEYITRYIASLKQRYTQSNGRRPFGISALIVGFDFDGTPRLYQTDPSGTYHAWKANAIGRGAKSVREFLEKNYTDEAIETDDLTIKLVIKALLEVVQSGGKNIELAVMRRDQSLKILNPEEIEKYVAEIEKEKEENEKKKQKKAS [PSMA7]" target_system="HeLa Kyoto" discrete_label="rule met"
biosequence="MAANKSKGQSSLALHKVIMVGSGGVGKSALTLQFMYDEFVEDYEPTKADSYRKKVVLDGEEVQIDILDTAGQEDYAAIRDNYFRSGEGFLLVFSITEHESFTATAEFREQILRVKAEEDKIPLLVVGNKSDLEERRQVPVEEARSKAEEWGVQYVETSAKTRANVDKVFFDLMREIRTKKMSENKDKNGKKSSKNKKSFKERCCLL [RALB]" target_system="HeLa Kyoto" discrete_label="rule not met"
biosequence="MSLHGKRKEIYKYEAPWTVYAMNWSVRPDKRFRLALGSFVEEYNNKVQLVGLDEESSEFICRNTFDHPYPTTKLMWIPDTKGVYPDLLATSGDYLRVWRVGETETRLECLLNNNKNSDFCAPLTSFDWNEVDPYLLGTSSIDTTCTIWGLETGQVLGRVNLVSGHVKTQLIAHDKEVYDIAFSRAGGGRDMFASVGADGSVRMFDLRHLEHSTIIYEDPQHHPLLRLCWNKQDPNYLATMAMDGMEVVILDVRVPCTPVARLNNHRACVNGIAWAPHSSCHICTAADDHQALIWDIQQMPRAIEDPILAYTAEGEINNVQWASTQPDWIAICYNNCLEILRV [DCAF7]" target_system="HeLa Kyoto" discrete_label="rule not met"
